Reference source: PubChem BioAssay AID2060500

- Tested on: 596521-263-R-J1-PDC complex spheroids, viability % of control;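 note: spheroids exposed to drugs for 7 days before viability reading; 100% = DMSO vehicle control viability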
- Protocol Summary: Anticancer human tumor 596521-263-R-J1-PDC patient-derived soft tissue sarcoma cell line growth inhibition [GQUAD]
- Condition Description: second compound 3.16 µM; first compound 3.16 µM; active compounds read low
// viability, T/C lookup, one value per entry
Metric: viability, T/C (%)

• CC1COCCN1c1cc(C2(O)CC3CCC(C2)O3)c2cnn(-c3ccn[nH]3)c2n1 (stereo not given) + Cc1cnc(CNC(=O)c2c(=O)c3ccc(N4CCCN(C)CC4)nc3n3c2sc2ccccc23)cn1 = 27.5
• Nc1ccn(C2OC(CO)C(O)C2(F)F)c(=O)n1 (stereo not given) + Cc1cnc(CNC(=O)c2c(=O)c3ccc(N4CCCN(C)CC4)nc3n3c2sc2ccccc23)cn1 = 40.9
• O=C(c1cc(Cc2n[nH]c(=O)c3ccccc23)ccc1F)N1CCN(C(=O)C2CC2)CC1 + CN(C)c1ccc(Nc2c3ccc(NC(=O)CCN4CCCC4)cc3nc3cc(NC(=O)CCN4CCCC4)ccc23)cc1 = 91
• O=C(c1cc(Cc2n[nH]c(=O)c3ccccc23)ccc1F)N1CCN(C(=O)C2CC2)CC1 + Cc1cnc(CNC(=O)c2c(=O)c3ccc(N4CCCN(C)CC4)nc3n3c2sc2ccccc23)cn1 = 52.3
• C#Cc1c(F)ccc2cc(O)cc(-c3ncc4c(N5CC6CCC(C5)N6)nc(OCC56CCCN5CC(F)C6)nc4c3F)c12 (stereo not given) + CN(C)c1ccc(Nc2c3ccc(NC(=O)CCN4CCCC4)cc3nc3cc(NC(=O)CCN4CCCC4)ccc23)cc1 = 86.6
